// minimal effective concentration lookup, one value per entry
tested on: Spermatozoa; experiment: Spermicidal activity in rat spermatozoa assessed as […]; format: functional; settings: read-out: MEC

{"compound.structure": "Cc1c(C2(c3[nH]c4ccccc4c3C)C(=O)Nc3ccccc32)[nH]c2ccccc12", "target.or.test.system": "Spermatozoa", "minimal effective concentration": "1000 µg/mL"}
{"compound.structure": "O=C1Nc2ccccc2C1(c1c[nH]c2ccc(Br)cc12)c1c[nH]c2ccc(Br)cc12", "target.or.test.system": "Spermatozoa", "minimal effective concentration": "3180 µg/mL"}
{"compound.structure": "COc1ccc2[nH]cc(C3(c4c[nH]c5ccc(OC)cc45)C(=O)Nc4ccccc43)c2c1", "target.or.test.system": "Spermatozoa", "minimal effective concentration": "340 µg/mL"}
{"compound.structure": "O=C(O)Cc1c(C2(c3[nH]c4ccccc4c3CC(=O)O)C(=O)Nc3ccccc32)[nH]c2ccccc12", "target.or.test.system": "Spermatozoa", "minimal effective concentration": "530 µg/mL"}
{"compound.structure": "O=C(O)c1[nH]c2ccccc2c1C1(c2c(C(=O)O)[nH]c3ccccc23)C(=O)Nc2ccccc21", "target.or.test.system": "Spermatozoa", "minimal effective concentration": "1110 µg/mL"}
{"compound.structure": "O=C1Nc2ccccc2C1(c1ccc[nH]1)c1ccc[nH]1", "target.or.test.system": "Spermatozoa", "minimal effective concentration": "3150 µg/mL"}
{"compound.structure": "O=C1Nc2ccccc2C1(c1c[nH]c2ccccc12)c1c[nH]c2ccccc12", "target.or.test.system": "Spermatozoa", "minimal effective concentration": "2400 µg/mL"}
{"compound.structure": "CCCCCCCCCc1ccc(OCCOCCOCCOCCOCCOCCOCCOCCOCCO)cc1", "target.or.test.system": "Spermatozoa", "minimal effective concentration": "500 µg/mL"}
{"compound.structure": "Cn1cc(C2(c3cn(C)c4ccccc34)C(=O)Nc3ccccc32)c2ccccc21", "target.or.test.system": "Spermatozoa", "minimal effective concentration": "2360 µg/mL"}
{"compound.structure": "Cc1[nH]c2ccccc2c1C1(c2c(C)[nH]c3ccccc23)C(=O)Nc2ccccc21", "target.or.test.system": "Spermatozoa", "minimal effective concentration": "2820 µg/mL"}
